experiment: AUC in rat at 5 mg/kg, po after 24 hrs; format: ADME, organism-based; parameters: time < 24 hr, dose 5 mg/kg, route oral; details: plasma
The reader will find reported AUC at 24 h values listed item by item below.

Dear colleague, I am looking for the recorded AUC at 24 h of the following molecule: COC(=O)N[C@H](C(=O)N1CCC[C@H]1c1nc(-c2ccc(-c3ccc(-c4c[nH]c([C@@H]5CCCN5C(=O)[C@@H](NC(=O)OC)C(C)C)n4)cc3)cc2)c[nH]1)C(C)C 4.8 µM·h

Dear colleague, I am looking for the recorded AUC at 24 h of the following molecule: COC(=O)N[C@@H](C(=O)N1CCC[C@H]1c1ncc(-c2ccc(-c3ncc(-c4cnc([C@@H]5CCCN5C(=O)[C@H](NC(=O)OC)c5ccccc5)[nH]4)cn3)cc2)[nH]1)c1ccccc1 0.021 µM·h

Dear colleague, I am looking for the recorded AUC at 24 h of the following molecule: COC(=O)N[C@@H](C(=O)N1CCC[C@H]1c1ncc(-c2ccc(-c3ccc(-c4cnc([C@@H]5CCCN5C(=O)[C@H]5CCCO5)[nH]4)cc3)cc2)[nH]1)c1ccccc1 1.83 µM·h

Dear colleague, I am looking for the recorded AUC at 24 h of the following molecule: CCN(CC)[C@@H](C(=O)N1CCC[C@H]1c1ncc(-c2ccc(-c3ccc(-c4cnc([C@@H]5CCCN5C(=O)[C@H](C)NC(=O)OC)[nH]4)cc3)cc2)[nH]1)c1ccccc1 0.165 µM·h

The measurements presented in this section are drawn from ChEMBL document CHEMBL3120093.
